# TEST SYSTEM: Botulinum neurotoxin type F light chain protease (Clostridium botulinum)
# PROCEDURE DETAILS: inhibition of botulinum toxin F protease cleavage – biochemical, multiplex microsphere, Powder Set 03, dose response (AID 720671)
# ASSAY CONDITIONS: multiplex microsphere protease cleavage assay, BoNT/F LC
Active and inactive are the calls of the source. How the calls were made is not given here.
Classes used: YES (active), NO (inactive)

{"CHEMICAL STRUCTURE": "COc1ccc(-c2nc3nc(-c4ccc(F)cc4)cn3nc2-c2ccc(OC)cc2)cc1", "CATEGORY": "NO"}
{"CHEMICAL STRUCTURE": "CC(C)NC(=O)Nc1ccc2nc(-c3cccs3)c(-c3cccs3)nc2c1", "CATEGORY": "NO"}
{"CHEMICAL STRUCTURE": "COc1ccc(-c2cn3nc(-c4ccc(F)cc4)c(-c4ccc(F)cc4)nc3n2)cc1", "CATEGORY": "NO"}
{"CHEMICAL STRUCTURE": "Fc1cccc(-c2cn3nc(-c4ccccc4)c(-c4ccccc4)nc3n2)c1", "CATEGORY": "YES"}
{"CHEMICAL STRUCTURE": "N#Cc1ccc(-c2cn3nc(-c4ccccc4)c(-c4ccccc4)nc3n2)cc1", "CATEGORY": "NO"}
